- test protocol: Non-clinical drug–drug interaction / oral pharmacokinetic study in Sprague–Dawley rats
- Format: in vivo, rat
- setup conditions: male, Sprague-Dawley, rat, plasma, po, 5 mg/kg, CL/F of saxagliptin, alone, SXG 5 mg/kg alone, mean ± SD
test readout: CL/F (L/h/kg)
Value expressed in L/h/kg; do not type the unit.

Recorded CL/F (molecule `N#C[C@@H]1C[C@@H]2C[C@@H]2N1C(=O)[C@@H](N)C12CC3CC(CC(O)(C3)C1)C2` ): 32.5

###

- test protocol: Non-clinical drug–drug interaction / oral pharmacokinetic study in Sprague–Dawley rats
- Type: in vivo, rat
- setup conditions: male, Sprague-Dawley, rat, plasma, po, 5 mg/kg, t1/2 of saxagliptin, co-administered with nicardipine, rat, po, SXG 5 mg/kg + NCD 15 mg/kg, mean ± SD
- Description: Male Sprague–Dawley (SD) rats, 7 weeks old (180–210 g), were purchased from Hana Biotech (Pyeongtaek, Republic of Korea). […] The calculated pharmacokinetic parameters included the following: area under the time–plasma concentration curve (AUC) between from0 to infinity (AUCinf); maximum plasma concentration (Cmax); time to reach maximum concentration (Tmax); terminal half-life (t1/2); oral clearance (CL/F). Pharmacokinetic parameters are expressed as the mean ± standard deviation (SD). […]
test readout: half-life (h)
Please state the figure in h; there is no need to write the unit.

Per the record, N#C[C@@H]1C[C@@H]2C[C@@H]2N1C(=O)[C@@H](N)C12CC3CC(CC(O)(C3)C1)C2 [saxagliptin] has half-life of 2.97

The measured values listed here are drawn from paper PMC10892660.
